# Tested on: Porcine atria myofibrils (atrial myosin ATPase)
# Run description: Myofibril ATPase assay, porcine atria myofibrils
# Assay type: biochemical
# Experimental context: Y75 value (no ‡ mark); porcine atria myofibrils
Quantity kind: Atrial EC25 (µM)

# Compound, Atrial EC25 (µM)
measured = [
    ("C[C@H](NC(=O)Cc1cc2c(F)cccc2[nH]c1=O)c1ccc(F)cc1F", 0.07),
    ("C[C@H](NC(=O)Cc1cc2cc(F)c(F)cc2[nH]c1=O)c1ncc(C#N)cn1 (single isomer, unassigned)", 100.00),
    ("CC[C@@H](NC(=O)Cc1c(C)c2c(C)c(F)ccc2[nH]c1=O)c1ncc(C#N)cn1 (single isomer, unassigned)", 0.52),
]

[P] Cc1c(CC(=O)N[C@H](C)c2ncc(C#N)cn2)c(=O)[nH]c2ccc(F)c(F)c12
[Q] Cc1c(C(F)(F)C(=O)N[C@@H](C)c2cc(C#N)ccn2)c(=O)[nH]c2ccc(F)cc12 (single isomer, unassigned)
[R] Cc1c(F)ccc2[nH]c(=O)c(C(F)(F)C(=O)N[C@H](C)c3ncc(C#N)cc3F)c(C)c12 (single isomer, unassigned)
[S] Cc1c(CC(=O)N[C@@H](C)c2ccc(F)cc2F)c(=O)[nH]c2ccccc12
Query string: // smallest Atrial EC25 at index 0, largest at the end // rank by listing labels in the order requested
Result string: S, P, R, Q

[1] C[C@H](NC(=O)Cc1cc2c(F)c(F)ccc2[nH]c1=O)c1ccc(F)cc1F
[2] Cc1c(F)ccc2[nH]c(=O)c(C(F)(F)C(=O)N[C@H](C)c3ncc(C#N)cc3F)c(C#N)c12 (single isomer, unassigned)
Query string: Which has the higher Atrial EC25, 1 or 2 ? In your reply, give the label of the chosen option.
Result string: 2

[I] C[C@H](NC(=O)C1(c2cc3c(F)c(F)ccc3[nH]c2=O)CC1)c1cnc(C#N)cn1 (single isomer, unassigned)
[II] Cc1c(CC(=O)N[C@H](C)c2ccc(C#N)nn2)c(=O)[nH]c2ccc(F)c(F)c12
[III] Cc1c(CC(=O)N[C@H](C)c2ncc(C#N)cn2)c(=O)[nH]c2ccc(F)c(Cl)c12 (single isomer, unassigned)
[IV] C[C@H](NC(=O)Cc1cc2ccccc2[nH]c1=O)c1ccc(F)cc1F
Query string: Arrange by Atrial EC25, high to low. // rank by listing labels in the order requested
Result string: IV, I, II, III
(IV: 1.12 µM, I: 0.46 µM, II: 0.09 µM, III: 0.06 µM)

[P] C[C@@H](NC(=O)C1(c2cc3cc(F)ccc3[nH]c2=O)CC1)c1cc(C#N)ccn1 (single isomer, unassigned)
[Q] Cc1c(C(F)(F)C(=O)N[C@@H](C)c2ncc(C#N)cc2F)c(=O)[nH]c2cccc(F)c12 (single isomer, unassigned)
Query string: Which has the higher Atrial EC25, P or Q ? In your reply, give the label of the chosen option.
Result string: P
(P: 30.59 µM, Q: 0.13 µM)
